# assayProcedure: AUC (0 to t) in dog at 0.9 mg/kg, po
# Assay type: ADME, organism-based, Canis lupus familiaris
# appliedConditions: in vivo

entrySmiles	readoutUnits	AUC(0-t)
N#Cc1ccc(S(=O)(=O)N2C[C@H](S(=O)(=O)c3ccc(Cl)cc3)[C@](O)(CO)C2)c(Cl)c1	ng·h/mL	2500

---

# assayProcedure: Volume of distribution at steady state in Sprague-Dawley rat at 1 mg/kg, iv or 2 mg/kg, po by LC/MS/MS analysis
# Format: ADME, organism-based
# appliedConditions: in vivo, read-out: Vdss
quantity: log10 Vd (log10 of the value in L/kg)

compound	log10 Vd
N#Cc1ccc(S(=O)(=O)N2C[C@H](S(=O)(=O)c3ccc(Cl)cc3)[C@](O)(CN)C2)c(Cl)c1	0.60
N#Cc1ccc(S(=O)(=O)N2C[C@H](S(=O)(=O)c3ccc(Cl)cn3)[C@](O)(CN)C2)c(Cl)c1	0.11
N#Cc1ccc(S(=O)(=O)N2C[C@H](S(=O)(=O)c3ccc(Cl)cc3)[C@](O)(CO)C2)c(C(F)(F)F)n1	0.56
N#Cc1ccc(S(=O)(=O)N2C[C@H](S(=N)(=O)c3ccc(Cl)cc3)[C@](O)(CO)C2)c(Cl)c1 (stereo not given in full)	0.51
N#Cc1ccc(S(=O)(=O)[C@H]2CN(S(=O)(=O)c3ccc(Cl)cc3Cl)C[C@@H]2O)cc1	0.04
N#Cc1ccc(S(=O)(=O)[C@H]2CN(S(=O)(=O)c3ccc(C#N)cc3Cl)C[C@@]2(O)CO)cc1	0.34
N#Cc1ccc(S(=O)(=O)N2C[C@H](S(=O)(=O)c3ccc(Cl)cn3)[C@](O)(CO)C2)c(Cl)c1	0.30
N#Cc1ccc(S(=O)(=O)N2C[C@H](S(=O)(=O)c3ccc(Cl)cn3)[C@@](O)(CN)C2)c(Cl)c1	-0.70
N#Cc1ccc(S(=O)(=O)[C@H]2CN(S(=O)(=O)c3ccc(Cl)cc3Cl)C[C@@]2(O)CO)cc1F	0.08
N#Cc1ccc(O[C@H]2CN(S(=O)(=O)c3ccc(Cl)cc3Cl)C[C@@]2(O)CO)cc1	0.38
N#Cc1ccc(S(=O)(=O)[C@H]2CN(S(=O)(=O)c3ccc(Cl)cc3C#N)C[C@@]2(O)CO)cc1	0.41
N#Cc1ccc(S(=O)(=O)[C@H]2CN(S(=O)(=O)c3ccc(Cl)cc3Cl)C[C@@]2(O)CO)cc1	0.36
N#Cc1ccc(S(=N)(=O)N2C[C@H](S(=O)(=O)c3ccc(Cl)cc3)[C@](O)(CO)C2)c(Cl)c1 (stereo not given in full)	0.43
N#Cc1ccc(S(=O)(=O)N2C[C@H](S(=O)(=O)c3ccc(Cl)cc3)[C@](O)(CO)C2)c(Cl)c1	0.65
N#Cc1ccc(S(=O)(=O)N2C[C@H](S(=O)(=O)c3ccc(Cl)cc3)[C@](O)(CO)C2)cn1	0.61
